Entry source: ChEMBL document CHEMBL4834398

# MEASURED ON: Islet amyloid polypeptide (Homo sapiens, UniProt P10997)
# Sequence (P10997 34-70 limits assumed): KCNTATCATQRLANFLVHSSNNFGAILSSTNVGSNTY
# EXPERIMENT NOTES: Inhibition of islet amyloid polypeptide (unknown origin) aggregation after 24 hrs by thioflavin T based fluorescence assay
MEASURED METRIC: IC50 (µM)

I. O=c1c(O)c(-c2ccc(O)cc2O)oc2cc(O)cc(O)c12
II. CC(=O)/C=C/c1ccc(O)c(O)c1
Ask: Lab note: check whether I or II shows the higher recorded IC50. Your answer should be the label of the entry you select.
Reply: I
